Parameter: cytotoxicity at 70.5 h. Scope: all listed entries.
- measurement.notes: Human HepG2 cell viability assay in 384 well format
- Assay type: toxicity, cell-based
- Set-up: dose 125 nL, time 70.5 hour; concentration not given beside the values
- applied.conditions: HepG2 cells, read-out: Inhibition
Your answer should be a plain number; it is taken to be in %.

1) O=C(O)[C@H]1C[C@@H](C(=O)NCc2ccncc2)CN(Cc2ccccc2)C1 :: -1.34
2) CN1CCN(Cc2n[nH]c(=O)n2CC2CCCCC2)CC1 :: -6.17
3) CCN(C(=O)NCCc1ccccc1Cl)C(C)CS(C)(=O)=O (stereo not drawn) :: 20.5
4) Cc1nn(C)c(N(C)C)c1CNCc1ccnc(N2CCOCC2)c1 :: -5.46
5) O=C1Nc2ccccc2C12CCCN(Cc1ccncc1)C2 (stereo not drawn) :: -10.6
6) Cc1ccc(C(=O)N2CCc3ncc(Cn4cccn4)n3CC2)cn1 :: -6.29
7) CCOC(=O)CCn1cnc2onc(-c3cc(OC)ccc3Cl)c2c1=O :: -11
8) COc1ccc2c(c1)CC(C(=O)N(C)CCCc1cnn(C)c1)CO2 (stereo not drawn) :: -8.48

Task: # return recorded cytotoxicity at 70.5 h for entry `COc1cc(CN2CCCC[C@]3(C)NC(=O)CC[C@H]23)ccc1F`
Result: -6.42

Task: Give the value of cytotoxicity at 70.5 h reported for the following: CCOCC(=O)NCC1Cn2nnc(-c3cccc(F)c3)c2CO1 (stereo not drawn)
Result: -4.09

Task: Return cytotoxicity at 70.5 h (reported value) for this molecule: `O=C(COc1cccc2c1CCC2=O)NCc1ccccc1F`
Result: -2.34

Task: Determine its reported cytotoxicity at 70.5 h: `CC(=O)N1CCN([C@@H]2CCC[C@@H](N(C)C(=O)C3CC3)[C@H]2O)CC1`
Result: -1.88

Task: For the molecule `CN(C)C(=O)[C@H]1CO[C@H]2CCN(c3ncc(F)cn3)C[C@H]2C1` , report cytotoxicity at 70.5 h.
Result: -8.69

Task: Dear colleague, please send me the reported cytotoxicity at 70.5 h for NC(=O)CC1CCCCN1C(=O)c1cccc(C(F)(F)F)c1 (stereo not drawn) when you can.
Result: -0.919

Task: Give the measured cytotoxicity at 70.5 h for `Cc1nn(C)c(C)c1OCC(=O)NCc1cccc(C(=O)O)c1`
Result: 3.51

Task: For the molecule CC(C1CCN(Cc2ccccc2OC(F)F)CC1)N1CCOCC1 (stereo not drawn) , report cytotoxicity at 70.5 h.
Result: -8.64

Task: Quote cytotoxicity at 70.5 h reported for CC(C)(O)CCc1cccc(C(=O)NCC2CN(S(C)(=O)=O)CCO2)c1 (stereo not drawn) please.
Result: 10.1

Task: Report measured cytotoxicity at 70.5 h; entry is `O=C(c1cc(C2CC2)[nH]n1)N1CCN(Cc2ccc(Cl)cc2)CC1`
Result: 12.5

Task: Quick one: give measured cytotoxicity at 70.5 h for `O=C(c1cnc(Cc2c(Cl)cccc2Cl)nc1O)N1CCNCC1`
Result: 8.34

Task: Provide one value: measured cytotoxicity at 70.5 h of `CCOc1ccc(C(=O)CCC(=O)NCc2cncn2CC)cc1C`
Result: 40.5

Task: // fetch cytotoxicity at 70.5 h given entry CN(CC1Cc2ccccc2CN1C)C(=O)Cc1cccs1 (stereo not drawn)
Result: -6.46

Task: Read off the recorded cytotoxicity at 70.5 h for `c1cnc(NC[C@@H]2CCC[C@@H]3CN(Cc4csnn4)C[C@@H]32)nc1`
Result: -9.2

Task: Find the measured cytotoxicity at 70.5 h of O=C(NCC1CCS(=O)(=O)C1)N(Cc1ccco1)C1CC1 (stereo not drawn) and report it.
Result: -10.7
